Target: T1, extracellular domain of cyno ILT3 (cynoILT3-ECD) (cynomolgus monkey)
T1 chain: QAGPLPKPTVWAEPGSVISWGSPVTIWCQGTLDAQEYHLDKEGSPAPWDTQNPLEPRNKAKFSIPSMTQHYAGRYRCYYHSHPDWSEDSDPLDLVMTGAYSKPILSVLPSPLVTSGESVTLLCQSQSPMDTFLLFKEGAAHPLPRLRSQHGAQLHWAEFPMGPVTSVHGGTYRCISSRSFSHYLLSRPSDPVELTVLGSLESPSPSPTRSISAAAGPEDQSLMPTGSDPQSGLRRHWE
Experiment: SPR (Biacore), antibody captured via anti-Fc on CM5 chip, soluble ILT3-ECD injected
Description: The binding affinities of anti-ILT3 antibodies to human ILT3 and cyno ILT3 were measured using a Biacore system (GE Healthcare LifeSciences). Briefly, anti-Fc antibody (Sigma-Aldrich) was immobilized on all four flow cells of a CM5 chip using amine coupling reagents (GE Healthcare LifeSciences). […] The binding affinities of various Hz48A6 and Hz45G10 antibodies to human ILT3 and cyno ILT3 were also determined using a Biacore system as described herein. […]
Measurement Type: kon (M⁻¹ s⁻¹)
Reply numerically in M⁻¹ s⁻¹, unit not repeated.

Some entries whose results are on file:
- Binder: "48A6 chimera (antibody, V domains shown, also called parental chimeric 48A6) VH: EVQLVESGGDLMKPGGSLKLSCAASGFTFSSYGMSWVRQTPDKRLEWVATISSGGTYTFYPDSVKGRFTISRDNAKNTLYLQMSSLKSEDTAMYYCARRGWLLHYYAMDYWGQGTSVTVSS VL: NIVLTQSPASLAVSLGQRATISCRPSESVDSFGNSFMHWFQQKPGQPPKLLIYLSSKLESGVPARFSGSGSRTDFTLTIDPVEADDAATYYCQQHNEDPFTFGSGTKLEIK"
  kon, M⁻¹ s⁻¹: "1.99e+06"
- Binder: "Hz48A6 C1/C2 (antibody, V domains shown) VH: EVQLVESGGGLVQPGGSLRLSCAASGFTFSSYGMSWVRQAPGKGLEWVATISSGGTYTFYPDSVKGRFTISRDNSKNTLYLQMNSLRAEDTAVYYCARRGWLLHYYAMDYWGQGTLVTVSS VL: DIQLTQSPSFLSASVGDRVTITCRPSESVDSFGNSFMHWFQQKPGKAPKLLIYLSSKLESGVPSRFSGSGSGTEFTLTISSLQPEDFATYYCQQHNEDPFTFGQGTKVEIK"
  kon, M⁻¹ s⁻¹: 114000
- Binder: "Hz48A6 C0/C2 (antibody, V domains shown) VH: EVQLVESGGGLVQPGGSLRLSCAASGFTFSSYGMSWVRQAPGKGLEWVGTISSGGTYTFYPDSVKGRFTISRDNSKNTLYLQMNSLRAEDTAVYYCARRGWLLHYYAMDYWGQGTLVTVSS VL: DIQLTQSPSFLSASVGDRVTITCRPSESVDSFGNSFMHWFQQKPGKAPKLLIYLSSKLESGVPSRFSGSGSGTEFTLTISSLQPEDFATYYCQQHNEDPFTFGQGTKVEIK"
  kon, M⁻¹ s⁻¹: 327000
- Binder: "Hz48A6 C2/C2 (antibody, V domains shown) VH: EVQLVESGGGLMQPGGSLRLSCAASGFTFSSYGMSWVRQAPGKGLEWVATISSGGTYTFYPDSVKGRFTISRDNSKNTLYLQMNSLRAEDTAVYYCARRGWLLHYYAMDYWGQGTLVTVSS VL: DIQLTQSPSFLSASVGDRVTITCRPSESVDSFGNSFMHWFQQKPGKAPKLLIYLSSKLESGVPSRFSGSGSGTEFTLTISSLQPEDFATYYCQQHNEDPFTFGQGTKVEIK"
  kon, M⁻¹ s⁻¹: 217000

Query :: Any idea what its kon is? The binder is Hz48A6 B1/C2 (antibody, V domains shown) VH: EVQLVESGGGLMQPGGSLRLSCAASGFTFSSYGMSWVRQAPGKGLEWVATISSGGTYTFYPDSVKGRFTISRDNAKNSLYLQMNSLRAEDTAVYYCARRGWLLHYYAMDYWGQGTSVTVSS VL: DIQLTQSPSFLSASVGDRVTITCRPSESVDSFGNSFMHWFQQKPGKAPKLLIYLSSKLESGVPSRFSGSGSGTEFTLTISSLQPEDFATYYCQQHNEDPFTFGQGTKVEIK
Result :: 174000

Just for reference, patent US20240043533A1 is where these values come from.
